Target: Prolyl endopeptidase-like (Homo sapiens)
Assay: human PREPL enzyme inhibitors, confirmation, biochemical, fluorescence polarization (AID 2803)
Details: recombinant PREPL, fluorescence polarization activity probe; at 5.96 µM
About 1,300 (65%) of roughly 2,000 compounds were called active. No stated cut-off is given here; in the data, active means inhibition above about 43%; inactive means the rest. So high a share suggests a set chosen from earlier hits. Only a sample is shown.
Write down the outcome that applies. Available outcomes: Yes for active, No for inactive

Chemical String	Class Name
COC(=O)Cc1nc2ccccc2[nH]1	No
CNCC[C@H](Oc1ccc(C(F)(F)F)cc1)c1ccccc1	Yes
COC(=O)[C@H]1[C@H]2C[C@H]3c4[nH]c5ccccc5c4CCN3C[C@@H]2CC[C@@H]1O	No

Kindly provide the recorded test outcome for the following compound: `Cc1ccc(N2CCN(C3=NC(=O)/C(=C\c4cccs4)S3)CC2)cc1`
Yes

---

Target: Prolyl endopeptidase-like (Homo sapiens) (UniProt Q4J6C6)
Sequence (Q4J6C6 whole entry, looked up): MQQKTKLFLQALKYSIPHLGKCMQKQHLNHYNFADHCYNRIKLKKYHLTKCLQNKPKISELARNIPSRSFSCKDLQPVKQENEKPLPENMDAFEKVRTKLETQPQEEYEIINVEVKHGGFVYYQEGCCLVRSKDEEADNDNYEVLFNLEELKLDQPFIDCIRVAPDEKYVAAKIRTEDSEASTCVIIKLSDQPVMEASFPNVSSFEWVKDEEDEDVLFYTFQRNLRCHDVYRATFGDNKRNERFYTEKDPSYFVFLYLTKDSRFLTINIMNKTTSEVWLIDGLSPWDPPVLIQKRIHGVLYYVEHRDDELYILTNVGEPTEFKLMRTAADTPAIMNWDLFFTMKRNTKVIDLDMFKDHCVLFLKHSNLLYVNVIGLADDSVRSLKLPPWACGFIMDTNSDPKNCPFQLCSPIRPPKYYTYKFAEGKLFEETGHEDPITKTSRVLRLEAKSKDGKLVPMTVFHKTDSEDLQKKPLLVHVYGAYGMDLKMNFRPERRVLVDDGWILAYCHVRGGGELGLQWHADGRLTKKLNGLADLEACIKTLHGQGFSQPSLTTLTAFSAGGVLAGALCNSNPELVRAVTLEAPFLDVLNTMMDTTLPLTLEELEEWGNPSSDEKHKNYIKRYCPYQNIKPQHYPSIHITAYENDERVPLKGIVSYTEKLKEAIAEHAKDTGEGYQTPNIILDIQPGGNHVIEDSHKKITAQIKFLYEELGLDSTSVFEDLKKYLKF
Assay: human PREPL enzyme inhibitors, confirmation, biochemical, fluorescence polarization (AID 2803)
Conditions: recombinant PREPL, fluorescence polarization activity probe; at 5.96 µM
Among all 2,000 compounds or so, about 1,300 (65%) were called active. Rule as the data show it: active = inhibition above about 43%; inactive = the rest. So high a share suggests a set chosen from earlier hits. Not all results are given here.
Write down the outcome that applies. Available outcomes: active, inactive

Known results for compounds:
Compound	Class Name
CCN1/C(=C\c2ccc3ccccc3[n+]2CC)Sc2cc(C)ccc21	active
C[N+](C)(CCCCCC[N+](C)(C)CCCN1C(=O)c2cccc3cccc(c23)C1=O)CCCN1C(=O)c2cccc3cccc(c23)C1=O	active
COCCN(CCOC)c1nc(N)c2c(N)nc3c(c2c1C#N)CC(=O)N3Cc1ccc(Cl)cc1	inactive
O=C1N[C@H](Cc2c[nH]c3ccccc23)COC(=O)[C@H](Cc2ccc(F)cc2)C/C=C\C[C@H]1CC(=O)N(CCO)Cc1ccccc1	inactive

Kindly provide the recorded test outcome for the following compound: CCC(CO)Oc1cc(NCc2ccccc2)c2ncn(C3CCCC3)c2c1 (stereo unspecified)
inactive

Kindly provide the recorded test outcome for the following compound: `Nc1ccc(Nc2ccccc2)cc1`
inactive

Kindly provide the recorded test outcome for the following compound: `Cc1ccc(Nc2ccccc2N)cc1`
inactive

Kindly provide the recorded test outcome for the following compound: `Nc1c(C(=O)c2cccs2)sc2nsc(SCCN3CCCCC3)c12`
active

Kindly provide the recorded test outcome for the following compound: `Cc1ccc(OCC(=O)Nc2ccc(N3CCN(C(=O)c4ccco4)CC3)cc2)c(C)c1`
active

Kindly provide the recorded test outcome for the following compound: `Oc1c(CN2CCCC2)cc(COCc2ccccc2)c2cccnc12`
active

Kindly provide the recorded test outcome for the following compound: `CN1CCN(c2ccc(NC(=O)COc3ccc(Cl)cc3Cl)cc2)CC1`
active

---

Target: Prolyl endopeptidase-like (Homo sapiens) (UniProt Q4J6C6)
Experiment: human PREPL enzyme inhibitors, confirmation, biochemical, fluorescence polarization (AID 2803)
Conditions: recombinant PREPL, fluorescence polarization activity probe; at 5.96 µM; hits give high values
The campaign covered roughly 2,000 compounds. About 1,300 (65%) were called active. The set was probably picked from earlier hits. The list is a sample of the results.
Classify by measured inhibition: Met if it is equal to or exceeds 9%, Not met if it is smaller.

Chemical String	Class Name
Cc1ccc(NS(=O)(=O)c2ccc(N/N=C/c3ccccc3OCC(=O)O)c([N+](=O)[O-])c2)c(C)c1	Met
O=C(N/N=C/c1cccnc1)c1cc2ccccc2cc1O	Not met

Hi, just wondering whether `C[C@@H](CN1CCC[C@H]1CN1C(N)=NC[C@@H]1Cc1ccccc1)N1C[C@@H](Cc2ccccc2)N(CCCC2CCCC2)C1=N` shows inhibition of 9% or higher.
Met

Hi, just wondering whether `CCN1C(=O)/C(=C\N2CCN(c3ccccc3)CC2)SC1=S` shows inhibition of 9% or higher.
Met
